# credit: patent US10167279B2

# STUDY SYSTEM: b-Raf (V600E) (Homo sapiens (Human), UniProt P15056, V600E)
# Sequence (P15056 whole entry V600E): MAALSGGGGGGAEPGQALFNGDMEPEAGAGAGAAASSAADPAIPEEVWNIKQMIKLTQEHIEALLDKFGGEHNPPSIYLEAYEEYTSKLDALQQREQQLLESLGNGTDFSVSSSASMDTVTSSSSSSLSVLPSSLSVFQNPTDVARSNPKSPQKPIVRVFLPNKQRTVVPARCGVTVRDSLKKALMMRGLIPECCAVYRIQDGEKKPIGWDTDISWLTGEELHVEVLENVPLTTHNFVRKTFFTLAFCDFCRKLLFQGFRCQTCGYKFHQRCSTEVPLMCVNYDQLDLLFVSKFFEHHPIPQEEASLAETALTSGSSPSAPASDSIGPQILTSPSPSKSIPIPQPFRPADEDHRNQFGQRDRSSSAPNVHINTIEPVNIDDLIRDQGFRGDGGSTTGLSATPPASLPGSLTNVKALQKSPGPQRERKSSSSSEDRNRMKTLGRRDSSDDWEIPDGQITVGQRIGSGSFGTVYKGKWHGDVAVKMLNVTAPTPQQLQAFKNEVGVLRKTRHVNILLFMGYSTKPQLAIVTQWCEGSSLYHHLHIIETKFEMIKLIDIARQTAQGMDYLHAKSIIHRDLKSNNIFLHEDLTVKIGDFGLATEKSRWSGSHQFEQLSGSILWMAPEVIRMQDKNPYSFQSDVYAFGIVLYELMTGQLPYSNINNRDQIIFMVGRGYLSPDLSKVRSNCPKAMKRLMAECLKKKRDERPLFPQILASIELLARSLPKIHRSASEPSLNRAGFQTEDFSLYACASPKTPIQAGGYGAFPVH
# TEST DETAILS: In vitro Raf activity determination (Alpha Screen, phospho-MEK), b-Raf (V600E)
# Format: biochemical
# STUDY CONDITIONS: ATP 10 μM, 60 min pre-incubation, 3 hours reaction
With a cut-off of 4 nM, any IC50 strictly below it is called y; any IC50 meeting it or above is called n.

Reference set, count: 3
{"columns": ["MOLECULE", "CLASS"],
 "data": [
  ["CCOc1ncc(-c2cc(NC(=O)c3cc(C(C)(C)N)cc(C(F)(F)F)c3)ccc2C)cc1C1(O)COC1 [Example 120]", "n"],
  ["CCOc1ncc(-c2cc(NC(=O)c3ccnc(C(C)(C)F)c3)cnc2C)cc1C1(CF)COC1 [Example 131]", "y"],
  ["COc1ncc(-c2cc(C(=O)Nc3cccc(C(C)(C)C#N)c3)ccc2C)cc1C1(O)COC1 [Example 146]", "y"]
]}

## Task Lab note: IC50 threshold 4 nM. Does this molecule come in strictly under it? COc1ncc(-c2cc(NC(=O)c3cc(C(C)(F)F)ccn3)cnc2C)cc1C1(O)COC1 [Example 91]
## Result n

## Task Lab note: IC50 threshold 4 nM. Does this molecule come in strictly under it? Cc1ccc(NC(=O)c2ccnc(C(C)(C)C#N)c2)cc1-c1cnc(OC2CCOCC2)c(C2(O)COC2)c1 [Example 33]
## Result y

## Task Lab note: IC50 threshold 4 nM. Does this molecule come in strictly under it? Cc1ccc(NC(=O)c2ccnc(C(F)(F)F)c2)cc1-c1cnc(OC2CCOCC2)c(C2(O)COC2)c1 [Example 35]
## Result y

## Task Lab note: IC50 threshold 4 nM. Does this molecule come in strictly under it? COc1ncc(-c2cc(NC(=O)c3cc(C(C)(C)C#N)ccn3)cnc2C)cc1C1(F)COC1 [Example 86]
## Result n
